tested on: T-47D; assay: Caspase cascade activation (Ac-DEVD-R110 fluorogenic substrate) in T-47D cells; format: cell-based, Human; conditions: 24 h incubation, ratio of net RFU to that of control samples; also: test concentration or dose not given here
Known Caspase Activity Ratio of a selection of molecules

Problem: Tell me its Caspase Activity Ratio given CC(C)c1ccc(C=C(C(=O)Nc2ccc(C(F)(F)F)cc2)C(=O)Nc2ccc(C(F)(F)F)cc2)cc1 [Example 12] as the entry.
Solution: 1

Problem: Tell me its Caspase Activity Ratio given O=C(Nc1cccc(C(F)(F)F)c1)C(=Cc1ccncc1)C(=O)Nc1cccc(C(F)(F)F)c1 [Example 8] as the entry.
Solution: 17

Continuing:
Problem: Tell me its Caspase Activity Ratio given COc1ccc(C=C(C(=O)Nc2cccc(C(F)(F)F)c2)C(=O)Nc2cccc(C(F)(F)F)c2)c(OC)c1 [Example 6] as the entry.
Solution: 1

Problem: Tell me its Caspase Activity Ratio given CC(C)c1ccc(C=C(C(=O)Nc2ccccc2)C(=O)Nc2ccccc2)cc1 [Example 10] as the entry.
Solution: 16

Problem: Tell me its Caspase Activity Ratio given CC(C)c1ccc(C=C(C(=O)Nc2ccccc2C(F)(F)F)C(=O)Nc2ccccc2C(F)(F)F)cc1 [Example 11] as the entry.
Solution: 1
